system: ISC-enriched organoids; assay: Primary screen, 384-well 2.5-D organoid differentiation (ENR+CD, 6 days): carbachol-induced lysozyme secretion (LYZ.S); assay type: cell-based, murine; conditions: Dose 10.00 uM; primary screen, vs plate median
Threshold check on Dose.FC.LYZ.S (log 2 fold change): at or above -0.1 gives Condition met, strictly below gives Condition not met.

Example cases with answers are listed next.
COMPOUND	LABEL
O=C(Nc1cc(C(F)(F)F)ccc1N1CCCCC1)c1ccncc1	Condition met
COc1cc(OC)c(/C=C/S(=O)(=O)Cc2ccc(OC)c(NCC(=O)O)c2)c(OC)c1	Condition not met
CCOC(=O)c1ccc(N2NC(=O)/C(=C/c3ccc([N+](=O)[O-])o3)C2=O)cc1	Condition met
CO[C@H]1C[C@@H]2CC[C@@H](C)[C@@](O)(O2)C(=O)C(=O)N2CCCC[C@H]2C(=O)O[C@H]([C@H](C)C[C@@H]2CC[C@@H](OP(C)(C)=O)[C@H](OC)C2)CC(=O)[C@H](C)/C=C(\C)[C@@H](O)[C@@H](OC)C(=O)[C@H](C)C[C@H](C)/C=C/C=C/C=C/1C	Condition met
O=C(NCc1cccc(O)c1)Nc1nc(-c2ccncc2)cs1	Condition not met

Quick check: does O=C1NC(=O)/C(=C/c2cccc(C(F)(F)F)c2)S1 have Dose.FC.LYZ.S (log 2 fold change) greater than or equal to -0.1?
Condition not met

Threshold query (Dose.FC.LYZ.S (log 2 fold change) >= -0.1) on O=[N+]([O-])c1ccc2c(c1)S(=O)(=O)C=C2
Condition met

Would you say O=C(NNc1nc2cc(F)ccc2n2cccc12)c1cnccn1 shows Dose.FC.LYZ.S (log 2 fold change) at minimum -0.1?
Condition not met

Quick check, Dose.FC.LYZ.S (log 2 fold change) >= -0.1? Nc1ccc(C(=O)[O-])c(O)c1.[Na+] [Sodium 4-Aminosalicylate]
Condition met

Does the reported Dose.FC.LYZ.S (log 2 fold change) for Cc1cc(Nc2ccc(NC(=O)c3ccc(Nc4ccnc5ccccc45)cc3)cc2)nc(N)n1 fall at or above the -0.1 mark?
Condition met

Check the entry Cc1ccc(-n2nccn2)c(C(=O)N2CCN(c3nc4cc(Cl)ccc4o3)CC[C@H]2C)c1 : does Dose.FC.LYZ.S (log 2 fold change) equal or exceed -0.1?
Condition met

Exam item: decide whether the reported Dose.FC.LYZ.S (log 2 fold change) for O=C(/C=C/c1ccccc1)NC(NC(=S)Nc1ccc(Cl)cc1)C(Cl)(Cl)Cl (stereo not shown) is at least -0.1.
Condition not met

Please indicate if the recorded Dose.FC.LYZ.S (log 2 fold change) for CC(C)[C@H](O)C(=O)N[C@@H](C)C(=O)N[C@@H]1C(=O)N(C)CCc2ccccc21 meets or exceeds -0.1.
Condition not met
